Tested on: IGROV1 ovarian
PROTOCOL NOTES: NCI tumour cell line growth inhibition, 48 h
// TGI lookup, one value per entry

Cc1ccc(C(C)C)cc1NC(=O)Nc1ccc([N+](=O)[O-])cc1 ... 4.79 µM

Form: item COc1ccc(CCN2CCc3c(C)c(C#N)c4nc5ccccc5n4c32)cc1OC ; test system IGROV1 ovarian; TGI: > 100 µM

Let me check: O=c1cc(NCc2ccncc2)[nH]c(=O)[nH]1 , system IGROV1 ovarian, measured TGI is > 100 µM

Bench note, IGROV1 ovarian: CN1CCN(c2nc(-c3ccncc3)nc3sc4c(c23)CCCCCC4)CC1 , TGI reads 22 µM

Lab note: compound CCN(CC)c1nc(N(C)C)c2ccccc2n1 tested on IGROV1 ovarian; recorded TGI was > 100 µM

Form: item O=S(=O)(c1ccc(O)c(C=Nc2ccc(Cl)cc2)c1)c1ccc(O)c(C=Nc2ccc(Cl)cc2)c1 ; test system IGROV1 ovarian; TGI: > 100 µM

* * *

Catalogue of TGI values
Test system: SK-MEL-28 melanoma
PROTOCOL NOTES: NCI tumour cell line growth inhibition, 48 h

Take a look at these entries with their results.
COc1ccc(C2CCc3cc4c(cc3/C2=N/OC(C)=O)OCO4)cc1OC (centres undefined) ... 57.4 µM
O=C1C=CC2(C=C1)C[C@H](NC(=O)C(F)(F)F)C(=O)O2 ... 38.3 µM
CCOC(=O)C1COc2cc(-c3cc(=O)c4ccccc4o3)ccc2O1 (centres undefined) ... > 100 µM
CC(C)OC1OC(CO)C(O)CC1n1cc(F)c(=O)[nH]c1=O (centres undefined) ... > 100 µM
O=C(CC1Sc2ccccc2NC1=O)Nc1ccc(Cl)cc1 (centres undefined) ... > 100 µM
COc1cc(/C=C(\C#N)C(N)=C(C#N)C#N)cc(O)c1O ... > 100 µM
NCCOCC(N)C(=O)O (centres undefined) ... > 100 µM
Cc1cc2c(c(=O)n1C)SCC2 ... > 100 µM

Now for another entry.
Record CC1OC2OC3C(OCC(O)C3O)OC(=O)[C@]34CCC(C)(C)CC3C3=CCC5[C@@]6(C)C[C@H](O)[C@H](OC7OC(CO)C(O)C(O)C7OC7OCC(OC(=O)CC(C)(O)CC(=O)OC1C(OC1OC(CO)C(O)C(O)C1O)C2O)C(O)C7O)[C@@](C)(CO)C6CC[C@@]5(C)[C@]3(C)CC4 (some centres undefined) . Reported TGI: 6.22 µM

* * *

System: OVCAR-3 ovarian
PROTOCOL NOTES: NCI tumour cell line growth inhibition, 48 h
RECORDED ENDPOINT: TGI

Solved entries (count: 3):
COc1ccc(-c2cc(C(O)C3CCCCN3)c3ccccc3n2)cc1 (configuration not stated) ... 27.8 µM
Cc1nc(N)nc2ccccc12 ... > 100 µM
COc1cnc2cc(C(=O)O)c3ccccc3c2c1 ... > 100 µM

Noted TGI for CC1=NN(C(=O)c2ccccc2O)C(=O)/C1=C/c1cccc([N+](=O)[O-])c1 , tested on OVCAR-3 ovarian: > 47.5 µM

# COC(=O)CC(C(C(C)=O)C(=O)OCc1ccccc1)N1C(=O)OCC1c1ccccc1 (configuration not stated) with OVCAR-3 ovarian: TGI is > 100 µM
